System: ATP;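 further: ATP exposure 15 min at 22 °C before imaging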
Assay: switch fluorescence ratio, 500 uM ATP over buffer (Cy3 cluster intensity, sum of 5 cycles each) (fold (ratio)); higher = stronger signal-on switching upon ATP binding; sequences stand for … in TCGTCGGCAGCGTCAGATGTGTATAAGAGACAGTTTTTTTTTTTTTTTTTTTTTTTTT…TC
Conditions: aptamer strand: ATP DNA aptamer (quencher-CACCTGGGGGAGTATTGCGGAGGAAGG + anchor), 100 nM annealed; ATP concentration: 500 uM
# switch fluorescence ratio annotations
experimental-readout: switch fluorescence ratio

>>> print(df.to_string())
    input_sequence       experimental_readout  value_observed
 0      GTGGGTAATT  switch fluorescence ratio           0.995
 1      TTGCGTTTTT  switch fluorescence ratio               1
 2      AATGATATGA  switch fluorescence ratio            1.02
 3      GATTTGATTT  switch fluorescence ratio           0.991
 4      TTGGGCGCGG  switch fluorescence ratio               1
 5      AAGGCTGCGA  switch fluorescence ratio            1.02
 6      AAACTTCGGG  switch fluorescence ratio               1
 7      GGTTAAGTGT  switch fluorescence ratio            1.01
 8      GATATGATCA  switch fluorescence ratio           0.973
 9      ATGGTAGCGC  switch fluorescence ratio               1
10      CGGTGTGCGG  switch fluorescence ratio           0.995
11      AGAGTGTGGG  switch fluorescence ratio            1.02
12      ATATGGGGAC  switch fluorescence ratio            1.01
13      CGTGGTTGAG  switch fluorescence ratio           0.976
14      CAATTGCGTA  switch fluorescence ratio           0.981
15      AGTGTTCTCG  switch fluorescence ratio           0.983
16      GTTTGGGTCT  switch fluorescence ratio           0.997
17      CCAAGGCTGG  switch fluorescence ratio            1.02
18      TACCGGTCGG  switch fluorescence ratio           0.999
19      ATGAATGGGG  switch fluorescence ratio            1.01
20      TCAGGGTTTC  switch fluorescence ratio           0.984
21      GATAGGATAG  switch fluorescence ratio           0.991
22      TAGGTCTGCG  switch fluorescence ratio           0.978
23      GATTCGAATC  switch fluorescence ratio               1
24      ATGGGGTCGG  switch fluorescence ratio               1
25      TGAAGGACGT  switch fluorescence ratio           0.996
26      GGTGTATTAG  switch fluorescence ratio               1
27      ATCGATTTTA  switch fluorescence ratio           0.978
28      TTAGACGATT  switch fluorescence ratio           0.998
29      AGGGGATCAT  switch fluorescence ratio           0.981
30      TGATGTAACG  switch fluorescence ratio            1.01
31      TAATGAAAAA  switch fluorescence ratio               1
32      TTTATTATGG  switch fluorescence ratio           0.989
33      GAATTAATTT  switch fluorescence ratio               1
34      CGCGACCATT  switch fluorescence ratio           0.967
35      TGATGTTGAC  switch fluorescence ratio               1
36      GTTAGCGGTT  switch fluorescence ratio           0.988
37      TTATAGTATT  switch fluorescence ratio           0.957
38      GGGGTTCTGC  switch fluorescence ratio           0.952
39      CATTTCCTGG  switch fluorescence ratio            1.01
40      ATACGAACGT  switch fluorescence ratio           0.993
41      TTGATAGACG  switch fluorescence ratio            1.07
42      AGGTTCACCC  switch fluorescence ratio            1.07
43      TGTGGACCAC  switch fluorescence ratio            1.04
44      GGTAACGAGG  switch fluorescence ratio           0.963
45      ACAGCGTTTG  switch fluorescence ratio           0.983
46      AATGTTTCTG  switch fluorescence ratio           0.998
47      TCTTGAGCAT  switch fluorescence ratio            1.34
48      TCGGTCCCGG  switch fluorescence ratio               1
49      GAGGTATGGG  switch fluorescence ratio           0.976
50      GCACCACCGT  switch fluorescence ratio            1.15
51      AGCAGTTGGG  switch fluorescence ratio            1.03
52      AGTAAGAGTC  switch fluorescence ratio            1.01
53      GTTTGTATAG  switch fluorescence ratio               1
54      TAGCTGGCAC  switch fluorescence ratio            1.02
55      TCTCCATTTA  switch fluorescence ratio            1.04
56      TATAACCAGG  switch fluorescence ratio            1.33
57      TTAGCTTGAG  switch fluorescence ratio            1.01
58      GATGGGGCGG  switch fluorescence ratio            1.01
59      TGGGGCTCTA  switch fluorescence ratio            1.03
60      TTCTCTATGT  switch fluorescence ratio            1.01
61      GGTGGTAGGC  switch fluorescence ratio               1

The measured values listed here are drawn from the supplement of paper PMC10126150.
